- target desc: TEAD4 TAZ (amino acids 13-57) (Homo sapiens)
- Sequence (Q15561 217-434 limits assumed): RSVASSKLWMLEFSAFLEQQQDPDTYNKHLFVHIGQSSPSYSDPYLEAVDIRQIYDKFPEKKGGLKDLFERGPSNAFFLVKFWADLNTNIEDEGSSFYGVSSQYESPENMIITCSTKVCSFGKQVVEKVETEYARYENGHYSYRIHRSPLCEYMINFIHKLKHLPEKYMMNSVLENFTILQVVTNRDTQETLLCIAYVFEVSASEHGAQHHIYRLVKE
- measurement notes: TEAD4-TAZ HTRF (TR-FRET) protein-protein interaction assay
- test conditions: TEAD4-TAZ HTRF, TR-FRET 665 nm/615 nm; read-out: TEAD4 TAZ HTRF combined: EC50
pEC50: −log10 of the molar value.
value type: pEC50

[[record]]
compound = "O=C(c1c(-c2cnccn2)nn2c(=O)cc(-c3ccc(C4CCCCC4)cc3)[nH]c12)N1CC(CF)C1"
value_type = "pEC50"
data_value = 7.52

[[record]]
compound = "O=C(c1c(-c2ncco2)nn2c(=O)cc(-c3ccc(C4CCCCC4)cc3)[nH]c12)N1CC(CF)C1"
value_type = "pEC50"
data_value = 7.30

[[record]]
compound = "O=C(c1c(-c2ncccn2)nn2c(=O)cc(-c3ccc(C4CCCCC4)c(F)c3)[nH]c12)N1CC(CF)C1"
value_type = "pEC50"
data_value = 7.22

[[record]]
compound = "O=C(c1c(-c2ncccn2)nn2c(=O)cc(-c3ccc(CC4CCCC4)cc3)[nH]c12)N1CC(CF)C1"
value_type = "pEC50"
data_value = 8.00

[[record]]
compound = "CN(C)C(=O)c1nn2c(=O)cc(-c3ccc(C4CCCCC4)c(F)c3)[nH]c2c1C(=O)N1CC(CF)C1"
value_type = "pEC50"
data_value = 6.82

[[record]]
compound = "C[C@H]1[C@@H](CF)CN1C(=O)c1c(-c2cnccn2)nn2c(=O)cc(-c3ccc(C4CCCCC4)cc3)[nH]c12 (single isomer, unassigned) [Isomer A, Example 39]"
value_type = "pEC50"
data_value = 7.22

[[record]]
compound = "O=C(c1c(C2CNCCO2)nn2c(=O)cc(-c3ccc(C4CCCCC4)cc3)[nH]c12)N1CC(CF)C1 (single isomer, unassigned) [Enantiomer A, Example 63]"
value_type = "pEC50"
data_value = 5.81

[[record]]
compound = "CC(C)c1ccnc(-c2nn3c(=O)cc(-c4ccc(C5CCCCC5)cc4)[nH]c3c2C(=O)N2CC(CF)C2)n1"
value_type = "pEC50"
data_value = 6.27

[[record]]
compound = "CCCCCCC/C=C/c1cc(=O)n2nc(-c3nccnc3C)c(C(=O)N3C[C@H](CF)[C@@H]3C)c2[nH]1"
value_type = "pEC50"
data_value = 6.01

[[record]]
compound = "Cc1nccnc1-c1nn2c(=O)cc(-c3ccc(C4CCCCC4)cc3)[nH]c2c1C(=O)N1C[C@@H](CF)[C@H]1C (single isomer, unassigned) [Isomer A, Example 41]"
value_type = "pEC50"
data_value = 5.31

[[record]]
compound = "C[C@@H]1[C@H](CF)CN1C(=O)c1c(-c2ncccn2)nn2c(=O)cc(-c3ccc(C4CCCCC4)cc3)[nH]c12 (single isomer, unassigned) [Isomer A, Example 40]"
value_type = "pEC50"
data_value = 7.52

[[record]]
compound = "COc1nccnc1-c1nn2c(=O)cc(-c3ccc(C4CCCCC4)cc3)[nH]c2c1C(=O)N1CC(CF)C1"
value_type = "pEC50"
data_value = 6.89

[[record]]
compound = "Cc1cnc(-c2nn3c(=O)cc(-c4ccc(C5CCCCC5)cc4)[nH]c3c2C(=O)N2CC(CF)C2)cn1"
value_type = "pEC50"
data_value = 6.54

